The measurements presented in this section are drawn from ChEMBL document CHEMBL3875165.

- protocol.description: AUC (0 to infinity) in monkey at 20 mg/kg, iv administered as bolus dose by HPLC method
- Type: ADME, organism-based, Macaca mulatta
- Parameters: dose 20 mg/kg, time infinity, route intravenous
- details: rhesus monkey, in vivo
The label depends only on AUC: T if it is at least 30 µg·h/mL, F if it is smaller.

hey, is AUC for this one >= 30 µg·h/mL? `CCO/N=C(\C(=O)N[C@@H]1C(=O)N2C(C(=O)[O-])=C(/C=C/C[n+]3ccc4sc(/C([O-])=N/C#N)nc4c3)CS[C@H]12)c1csc(N)n1.[Na+]`
F

hey, is AUC for this one >= 30 µg·h/mL? `CCO/N=C(\C(=O)N[C@@H]1C(=O)N2C(C(=O)[O-])=C(/C=C/C[n+]3ccc(/C([O-])=N/C#N)cc3)CS[C@H]12)c1csc(N)n1.[Na+]`
F

hey, is AUC for this one >= 30 µg·h/mL? `CCO/N=C(\C(=O)N[C@@H]1C(=O)N2C(C(=O)[O-])=C(/C=C/C[n+]3ccc4c(/C([O-])=N\C#N)cccc4c3)CS[C@H]12)c1csc(N)n1.[Na+]`
F

hey, is AUC for this one >= 30 µg·h/mL? `CCO/N=C(\C(=O)N[C@@H]1C(=O)N2C(C(=O)[O-])=C(C[n+]3ccc(-c4c[nH]c(C(=O)NC#N)c4)cc3)CS[C@H]12)c1nsc(N)n1`
F

hey, is AUC for this one >= 30 µg·h/mL? `CCO/N=C(\C(=O)N[C@@H]1C(=O)N2C(C(=O)[O-])=C(/C=C/C[n+]3ccc(-c4cc(/C([O-])=N/C#N)n(C)n4)cc3)CS[C@H]12)c1csc(N)n1.[Na+]`
F

hey, is AUC for this one >= 30 µg·h/mL? `CCO/N=C(\C(=O)N[C@@H]1C(=O)N2C(C(=O)[O-])=C(/C=C/C[n+]3ccc(-n4ccc(/C([O-])=N/C#N)n4)cc3)CS[C@H]12)c1csc(N)n1.[Na+]`
T

hey, is AUC for this one >= 30 µg·h/mL? `CCO/N=C(\C(=O)N[C@@H]1C(=O)N2C(C(=O)[O-])=C(/C=C/C[n+]3ccc(-c4cc(/C([O-])=N/C#N)on4)cc3)CS[C@H]12)c1csc(N)n1.[Na+]`
T

hey, is AUC for this one >= 30 µg·h/mL? `CCO/N=C(\C(=O)N[C@@H]1C(=O)N2C(C(=O)[O-])=C(/C=C/C[n+]3ccc4[nH]c(/C([O-])=N/C#N)cc4c3)CS[C@H]12)c1csc(N)n1.[Na+]`
F

hey, is AUC for this one >= 30 µg·h/mL? `CCO/N=C(\C(=O)N[C@@H]1C(=O)N2C(C(=O)[O-])=C(/C=C/C[n+]3ccc(-c4nc(/C([O-])=N/C#N)cs4)cc3)CS[C@H]12)c1csc(N)n1.[Na+]`
T

hey, is AUC for this one >= 30 µg·h/mL? `CCO/N=C(\C(=O)N[C@@H]1C(=O)N2C(C(=O)[O-])=C(/C=C/C[n+]3ccc(-c4csc(/C([O-])=N/C#N)n4)cc3)CS[C@H]12)c1csc(N)n1.[Na+]`
T

* * *

- Tested on: Escherichia coli
- protocol.description: Antibacterial activity against Escherichia coli NIHJ JC-2 after 20 hrs by agar dilution method
- Assay type: functional
- details: NIHJ JC-2, 20 h
measured.metric: MIC
Answer format reminder: number followed by unit.

Report value only: MIC, Escherichia coli, CCCO/N=C(\C(=O)N[C@@H]1C(=O)N2C(C(=O)[O-])=C(C[n+]3ccc(-c4cc(/C([O-])=N/C#N)[nH]n4)cc3)CS[C@H]12)c1csc(N)n1.[Na+] (stereo in doubt)
1 µg/mL

Report value only: MIC, Escherichia coli, `CCO/N=C(\C(=O)N[C@@H]1C(=O)N2C(C(=O)[O-])=C(/C=C/C[n+]3ccc(-c4csc(/C([O-])=N/C#N)c4)cc3)CS[C@H]12)c1csc(N)n1.[Na+]`
0.125 µg/mL

Report value only: MIC, Escherichia coli, `CCO/N=C(\C(=O)N[C@@H]1C(=O)N2C(C(=O)[O-])=C(/C=C/C[n+]3ccc(-c4cc(/C([O-])=N/C#N)n(C)c4)cc3)CS[C@H]12)c1csc(N)n1.[Na+]`
0.25 µg/mL

Report value only: MIC, Escherichia coli, CO/N=C(\C(=O)N[C@@H]1C(=O)N2C(C(=O)O)=C(CSc3nc(=O)c(=O)[nH]n3C)CS[C@H]12)c1csc(N)n1 [CEFTRIAXONE]
0.125 µg/mL

Report value only: MIC, Escherichia coli, `CCO/N=C(\C(=O)N[C@@H]1C(=O)N2C(C(=O)[O-])=C(/C=C/C[n+]3ccc(-c4cc(/C([O-])=N/C#N)n(C)n4)cc3)CS[C@H]12)c1csc(N)n1.[Na+]`
0.25 µg/mL
